Biological target: AMPK beta 2 (Mus musculus, UniProt Q6PAM0+Q8BRK8)
Construct: fully differentiated myotubes (C2C12 cells) grown in 96 well plate; endogenous in cells; host or cells: C2C12 myotubes (assignment to the beta 2 column inferred)
Sequence (Q6PAM0 whole entry): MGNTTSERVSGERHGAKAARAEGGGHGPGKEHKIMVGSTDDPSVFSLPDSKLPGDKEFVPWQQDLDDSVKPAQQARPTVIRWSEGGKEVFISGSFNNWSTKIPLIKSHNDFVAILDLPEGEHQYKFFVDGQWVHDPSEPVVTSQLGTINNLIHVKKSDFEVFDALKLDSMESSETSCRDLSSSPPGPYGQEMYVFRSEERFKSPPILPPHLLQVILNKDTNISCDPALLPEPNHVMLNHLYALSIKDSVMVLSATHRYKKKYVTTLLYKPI
Sequence (Q8BRK8 whole entry): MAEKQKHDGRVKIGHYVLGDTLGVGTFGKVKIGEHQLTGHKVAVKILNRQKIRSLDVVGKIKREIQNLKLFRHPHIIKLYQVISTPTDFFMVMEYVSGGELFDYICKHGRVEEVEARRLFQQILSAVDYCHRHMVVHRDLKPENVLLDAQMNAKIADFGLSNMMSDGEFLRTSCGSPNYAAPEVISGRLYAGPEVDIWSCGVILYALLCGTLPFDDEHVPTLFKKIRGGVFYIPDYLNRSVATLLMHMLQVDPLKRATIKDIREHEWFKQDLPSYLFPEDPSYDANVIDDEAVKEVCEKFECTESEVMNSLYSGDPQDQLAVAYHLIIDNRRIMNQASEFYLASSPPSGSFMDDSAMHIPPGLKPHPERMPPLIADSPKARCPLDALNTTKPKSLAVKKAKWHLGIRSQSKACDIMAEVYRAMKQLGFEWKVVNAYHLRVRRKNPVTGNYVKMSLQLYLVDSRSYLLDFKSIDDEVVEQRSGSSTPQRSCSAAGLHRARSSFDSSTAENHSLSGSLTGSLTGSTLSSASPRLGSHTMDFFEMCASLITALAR
Sequence (O54950 whole entry partner): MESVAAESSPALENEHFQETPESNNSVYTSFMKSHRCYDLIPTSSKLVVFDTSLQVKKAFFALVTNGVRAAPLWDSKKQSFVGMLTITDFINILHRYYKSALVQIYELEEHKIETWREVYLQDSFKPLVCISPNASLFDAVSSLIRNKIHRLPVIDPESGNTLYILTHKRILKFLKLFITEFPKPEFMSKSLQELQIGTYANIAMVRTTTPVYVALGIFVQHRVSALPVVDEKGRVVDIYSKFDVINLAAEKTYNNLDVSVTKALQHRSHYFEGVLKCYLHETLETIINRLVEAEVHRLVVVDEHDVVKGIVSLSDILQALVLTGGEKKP
Assay: in-cell-ELISA for phospho-ACC: activation of AMPK, beta 2 (HepG2 cells / C2C12 myotubes)
Assay type: cell-based
Conditions: 2 h, 1 μM, percentage activation over vehicle control, read-out: Percentage activation of beta 2 at given concentration
measured.parameter: activation at 1 µM (%)
Field: numeric (%). Do not append units.

[ask] Can you look up the measured activation at 1 µM of O=C(O)Cc1cccc(C2CC23C(=O)Nc2cc(F)c(-c4ccc(-c5ccc(-n6cncn6)cc5)cc4)cc23)c1 (stereo not shown) for me?
[reply] 60

[ask] Can you look up the measured activation at 1 µM of CC(C)(C(=O)O)c1ccc(C2CC23C(=O)Nc2cc(F)c(-c4ccc(-c5ccc(-n6cccn6)cc5)cc4)cc23)cc1 (stereo not shown) for me?
[reply] 38

[ask] Can you look up the measured activation at 1 µM of COc1ccc(C2CC23C(=O)Nc2cc(F)c(-c4ccc(-c5ccc(-n6cncn6)cc5)cc4)cc23)cc1CC(=O)O (stereo not shown) for me?
[reply] 120

[ask] Can you look up the measured activation at 1 µM of CCc1ccc(C2CC23C(=O)Nc2cc(Cl)c(-c4ccc(-c5ccc(-n6cncn6)cc5)cc4)cc23)cc1C(=O)O (stereo not shown) for me?
[reply] 102

* * *

Biological target: AMPK beta 1 (Homo sapiens, UniProt Q13131+Q9Y478)
Construct: in-cell-ELISA for phospho-ACC (Acetyl-CoA carboxylase 1) in HepG2 cells (liver); endogenous in cells; host or cells: HepG2 (assignment to the beta 1 column inferred)
Sequence (Q9Y478 2-270 limits assumed): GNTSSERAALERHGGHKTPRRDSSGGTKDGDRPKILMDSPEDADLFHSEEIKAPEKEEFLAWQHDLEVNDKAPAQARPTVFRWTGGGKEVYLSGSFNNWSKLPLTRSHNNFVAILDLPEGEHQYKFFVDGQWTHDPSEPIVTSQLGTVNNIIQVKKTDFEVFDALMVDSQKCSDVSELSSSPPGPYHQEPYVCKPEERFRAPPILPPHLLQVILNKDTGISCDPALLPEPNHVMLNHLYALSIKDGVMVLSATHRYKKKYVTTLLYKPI
Sequence (Q13131 whole entry): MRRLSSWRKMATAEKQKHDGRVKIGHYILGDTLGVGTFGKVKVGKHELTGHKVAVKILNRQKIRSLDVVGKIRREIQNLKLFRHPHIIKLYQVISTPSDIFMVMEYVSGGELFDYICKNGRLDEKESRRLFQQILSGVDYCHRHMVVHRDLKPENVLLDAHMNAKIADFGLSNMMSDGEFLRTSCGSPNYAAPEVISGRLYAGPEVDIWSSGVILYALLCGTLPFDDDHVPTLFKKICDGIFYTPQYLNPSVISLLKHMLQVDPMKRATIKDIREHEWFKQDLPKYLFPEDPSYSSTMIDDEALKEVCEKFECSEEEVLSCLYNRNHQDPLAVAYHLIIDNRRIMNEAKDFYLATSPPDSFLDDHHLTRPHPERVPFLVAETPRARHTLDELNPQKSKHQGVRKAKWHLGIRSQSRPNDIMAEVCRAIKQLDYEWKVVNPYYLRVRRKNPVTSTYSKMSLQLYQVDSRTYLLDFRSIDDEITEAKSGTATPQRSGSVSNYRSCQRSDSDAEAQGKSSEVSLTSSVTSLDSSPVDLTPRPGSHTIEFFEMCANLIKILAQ
Sequence (P54619 whole entry partner): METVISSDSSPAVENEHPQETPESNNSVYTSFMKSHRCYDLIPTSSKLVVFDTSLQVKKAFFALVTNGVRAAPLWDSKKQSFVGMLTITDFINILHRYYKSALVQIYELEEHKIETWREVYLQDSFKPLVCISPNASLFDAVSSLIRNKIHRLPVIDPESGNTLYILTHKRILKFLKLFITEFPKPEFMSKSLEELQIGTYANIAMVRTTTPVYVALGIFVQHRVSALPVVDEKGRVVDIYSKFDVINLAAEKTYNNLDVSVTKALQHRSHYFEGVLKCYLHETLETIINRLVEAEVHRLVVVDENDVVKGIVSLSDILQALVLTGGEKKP
Test: in-cell-ELISA for phospho-ACC: activation of AMPK, beta 1 (HepG2 cells / C2C12 myotubes)
Assay type: cell-based
Details: 2 h, 3 μM, percentage activation over vehicle control, read-out: Percentage activation of beta 1 at given concentration
Use 70% as the dividing line for activation at 3 µM, with the line itself on the satisfied side and lower values as not satisfied.

[ask] Could you tell me if the measured activation at 3 µM of Cc1ccc(C2CC23C(=O)Nc2cc(Cl)c(-c4ccc(-c5ccncc5O)cc4)cc23)cc1C(=O)O (stereo not shown) reaches 70% or more?
[reply] satisfied

[ask] Could you tell me if the measured activation at 3 µM of COc1ccc(C2CC23C(=O)Nc2cc(Cl)c(-c4ccc(-c5ccc(-n6cccn6)cc5)cc4)cc23)cc1C(=O)O (stereo not shown) reaches 70% or more?
[reply] satisfied

[ask] Could you tell me if the measured activation at 3 µM of Cc1ccc(C2CC23C(=O)Nc2cc(Cl)c(-c4ccc(Cc5ccccc5O)cc4)cc23)cc1C(=O)O (stereo not shown) reaches 70% or more?
[reply] not satisfied

[ask] Could you tell me if the measured activation at 3 µM of CCN1C(=O)C2(CC2c2ccc(OC)c(C(=O)O)c2)c2cc(-c3ccc(-c4ccncc4)cc3)c(Cl)cc21 (stereo not shown) reaches 70% or more?
[reply] satisfied

[ask] Could you tell me if the measured activation at 3 µM of O=C(O)Cc1cccc(C2CC23C(=O)Nc2cc(Cl)c(-c4ccc(-c5ccc(-n6cncn6)cc5)cc4)cc23)c1 (stereo not shown) reaches 70% or more?
[reply] not satisfied

[ask] Could you tell me if the measured activation at 3 µM of CC(C)c1ccc(C2CC23C(=O)N(C)c2cc(Cl)c(-c4ccc(-c5ccncc5O)cc4)cc23)cc1C(=O)O (stereo not shown) reaches 70% or more?
[reply] satisfied

* * *

Target: AMPK beta 1 (Homo sapiens, UniProt Q13131+Q9Y478)
Construct: in-cell-ELISA for phospho-ACC (Acetyl-CoA carboxylase 1) in HepG2 cells (liver); endogenous in cells; host or cells: HepG2 (assignment to the beta 1 column inferred)
Assay: in-cell-ELISA for phospho-ACC: activation of AMPK, beta 1 (HepG2 cells / C2C12 myotubes)
Type: cell-based
Settings: 2 h, 3 μM, percentage activation over vehicle control, read-out: Percentage activation of beta 1 at given concentration
So I've got a bunch of molecules here, and I need their activation at 3 µM values.
Field: numeric (%). Do not append units.

[ask] Can you look up the measured activation at 3 µM of Cc1ccc(C2CC23C(=O)Nc2cc(Cl)c(-c4ccc(-c5ccc(-n6cncn6)cc5)cc4)cc23)cc1CO (stereo not drawn) for me?
[reply] 36

[ask] Can you look up the measured activation at 3 µM of O=C(O)c1ccc(C2CC23C(=O)Nc2cc(Cl)c(-c4ccc(-c5ccccc5O)cc4)cc23)cc1 (stereo not drawn) for me?
[reply] 39

[ask] Can you look up the measured activation at 3 µM of CC(C)(C(=O)O)c1ccc(C2CC23C(=O)Nc2cc(Cl)c(-c4ccc(-c5ccc(-n6cncn6)cc5)cc4)cc23)cc1 (stereo not drawn) for me?
[reply] 48

[ask] Can you look up the measured activation at 3 µM of Cc1ccc(C2CC23C(=O)N(CCO)c2cc(Cl)c(-c4ccc(-c5ccncc5)cc4)cc23)cc1C(=O)O (stereo not drawn) for me?
[reply] 81

[ask] Can you look up the measured activation at 3 µM of CCN1C(=O)C2(CC2c2ccc(C)c(C(=O)O)c2)c2cc(-c3ccc(-c4ccncc4)cc3)c(Cl)cc21 (stereo not drawn) for me?
[reply] 74

[ask] Can you look up the measured activation at 3 µM of O=C(O)Cc1ccc(C2CC23C(=O)Nc2cc(Cl)c(-c4ccc(-c5ccc(-n6cncn6)cc5)cc4)cc23)cc1 (stereo not drawn) for me?
[reply] 71

[ask] Can you look up the measured activation at 3 µM of Cc1ccc(C2CC23C(=O)Nc2cc(Cl)c(-c4ccc(-c5ccnc(N(C)C)c5)cc4)cc23)cc1C(=O)O (stereo not drawn) for me?
[reply] 95

[ask] Can you look up the measured activation at 3 µM of Cc1ccc(C2CC23C(=O)Nc2cc(Cl)c(-c4ccc(-c5ccncc5)c(F)c4)cc23)cc1C(=O)O (stereo not drawn) for me?
[reply] 80

[ask] Can you look up the measured activation at 3 µM of COc1ccc(C2CC23C(=O)N(C)c2cc(Cl)c(-c4ccc(-c5ccccc5O)cc4)cc23)cc1CC(=O)O (stereo not drawn) for me?
[reply] 27

[ask] Can you look up the measured activation at 3 µM of Cc1ccc(C2CC23C(=O)Nc2cc(F)c(-c4ccc(-c5ccc(-n6cccn6)cc5)cc4)cc23)cc1C(=O)O (stereo not drawn) for me?
[reply] 104

[ask] Can you look up the measured activation at 3 µM of Cc1ccc(C2CC23C(=O)Nc2cc(Cl)c(-c4ccc(-c5ccccc5C(C)(C)O)cc4)cc23)cc1C(=O)O (stereo not drawn) for me?
[reply] 47

[ask] Can you look up the measured activation at 3 µM of Cc1ccc(C2CC23C(=O)N(CC2CC2)c2cc(Cl)c(-c4ccc(-c5ccncc5)cc4)cc23)cc1C(=O)O (stereo not drawn) for me?
[reply] 83

* * *

So I've got a bunch of molecules here, and I need their activation at 1 µM values.
Biological target: AMPK beta 2 (Mus musculus, UniProt Q6PAM0+Q8BRK8)
Construct: fully differentiated myotubes (C2C12 cells) grown in 96 well plate; endogenous in cells; host or cells: C2C12 myotubes (assignment to the beta 2 column inferred)
Assay: in-cell-ELISA for phospho-ACC: activation of AMPK, beta 2 (HepG2 cells / C2C12 myotubes)
Assay type: cell-based
Details: 2 h, 1 μM, percentage activation over vehicle control, read-out: Percentage activation of beta 2 at given concentration
Field: numeric (%). Do not append units.

[ask] Can you look up the measured activation at 1 µM of Cc1ccc(C2CC23C(=O)Nc2cc(Cl)c(-c4ccc(-c5ccc(S(C)(=O)=O)cc5)cc4)cc23)cc1C(=O)O (stereo not shown) [Example 97] for me?
[reply] 37

[ask] Can you look up the measured activation at 1 µM of COc1ccc(C2CC23C(=O)Nc2cc(F)c(-c4ccc(-c5ccc(-n6cncn6)cc5)cc4)cc23)cc1C(=O)O (stereo not shown) [Example 168] for me?
[reply] 84

[ask] Can you look up the measured activation at 1 µM of COc1ccc(C2CC23C(=O)Nc2cc(Cl)c(-c4ccc(-c5ccc(-n6cncn6)cc5)cc4)cc23)cc1CC(=O)O (stereo not shown) [Example 123] for me?
[reply] 85

[ask] Can you look up the measured activation at 1 µM of COc1ccc(C2CC23C(=O)Nc2cc(F)c(-c4ccc(-c5ccc(-n6ccnn6)cc5)cc4)cc23)cc1C(=O)O (stereo not shown) [Example 169] for me?
[reply] 61

* * *

Molecular target: AMPK beta 1 (Homo sapiens, UniProt Q13131+Q9Y478)
Construct: in-cell-ELISA for phospho-ACC (Acetyl-CoA carboxylase 1) in HepG2 cells (liver); endogenous in cells; host or cells: HepG2 (assignment to the beta 1 column inferred)
Assay: in-cell-ELISA for phospho-ACC: activation of AMPK, beta 1 (HepG2 cells / C2C12 myotubes)
Type: cell-based
Settings: 2 h, 10 μM, percentage activation over vehicle control, read-out: Percentage activation of beta 1 at given concentration
So I've got a bunch of compounds here, and I need their activation at 10 µM values.
Field: numeric (%). Do not append units.

[ask] Can you look up the measured activation at 10 µM of Cc1ccc(C2CC23C(=O)N(C)c2cc(Cl)c(-c4ccc(-c5ccncc5O)cc4)cc23)cc1C(=O)O (centres unmarked) [Example 41] for me?
[reply] 29

[ask] Can you look up the measured activation at 10 µM of Cc1ccc(C2CC23C(=O)Nc2cc(Cl)c(-c4ccc5c(ccn5CCO)c4)cc23)cc1C(=O)O (centres unmarked) [Example 47] for me?
[reply] 72

[ask] Can you look up the measured activation at 10 µM of Cc1ccc(C2CC23C(=O)Nc2cc(Cl)c(S(=O)(=O)NC4CC4)cc23)cc1C(=O)O (centres unmarked) [Example 90] for me?
[reply] 25

[ask] Can you look up the measured activation at 10 µM of Cc1ccc(C2CC23C(=O)Nc2cc(Cl)c(C#Cc4ccncc4)cc23)cc1C(=O)O (centres unmarked) [Example 79] for me?
[reply] 112

[ask] Can you look up the measured activation at 10 µM of O=C(O)c1cccc(C2CC23C(=O)Nc2cc(Cl)c(-c4ccc(-c5ccncc5)cc4)cc23)c1 (centres unmarked) [Example 80] for me?
[reply] 137

[ask] Can you look up the measured activation at 10 µM of CC(C)c1ccc(C2CC23C(=O)Nc2cc(Cl)c(-c4ccc(-c5ccncc5O)cc4)cc23)cc1C(=O)O (centres unmarked) [Example 22] for me?
[reply] 271

[ask] Can you look up the measured activation at 10 µM of Cc1ccc(C2CC23C(=O)Nc2cc(Cl)c(-c4ccc(-c5ccccc5S(C)(=O)=O)cc4)cc23)cc1C(=O)O (centres unmarked) [Example 87] for me?
[reply] 47

[ask] Can you look up the measured activation at 10 µM of Cc1ccc(C2CC23C(=O)Nc2cc(Cl)c(-c4ccc5[nH]ccc5c4)cc23)cc1C(=O)O (centres unmarked) [Example 94] for me?
[reply] 137

[ask] Can you look up the measured activation at 10 µM of O=C(O)Cc1cccc(C2CC23C(=O)Nc2cc(Cl)c(-c4ccc(C5(CO)CC5)cc4)cc23)c1 (centres unmarked) [Example 48] for me?
[reply] 74

[ask] Can you look up the measured activation at 10 µM of COc1ccc(C2CC23C(=O)Nc2cc(F)c(-c4ccc(-c5ccncc5)cc4)cc23)cc1C(=O)O (centres unmarked) [Example 84] for me?
[reply] 75

[ask] Can you look up the measured activation at 10 µM of Cc1ccc(C2CC23C(=O)Nc2cc(F)c(-c4ccc(-c5ccccc5O)cc4)cc23)cc1CC(=O)O (centres unmarked) [Example 3] for me?
[reply] 166

The measured values listed here are drawn from patent US20160130226A1.
